Consider the following molecules and their measured T/C readings.
test system: P388 leukemia ip, CD2F1 mice, survival T/C; test: NCI In Vivo Anticancer Drug Screen. Data for tumor model P388 Leukemia (intraperitoneal) in CD2F1 (CDF1) mice; settings: endpoint: median survival time; dose: 100.0 mg/kg/injection; schedule: Q01DX005 (ip); vehicle: Klucel (hydroxypropylcellulose) (HPC); higher = longer survival
Inconclusive results and toxic doses are left out.

> print(dat)
                                   molecule    observed.value
1  O=C1OC(c2ccccc2)=N/C1=C/c1c(-c2ccccc2)c(-c2ccccc2)c2n1CCC2   86 % of control
2  CC(C)=CCc1c(C)cc2cc3c(c(O)c2c1O)C(O)=CC(=O)C3(CC=C(C)C)C/C=C(\C)CO (stereo unspecified)   97 % of control
3            c1ccc(CSCCOCCOCCSCc2ccccn2)nc1  108 % of control
4  O=C1c2ccccc2C(=O)c2c(-c3ccc(Cl)cc3)noc21   93 % of control
5  CCOC(=O)C(=NNc1cc(OC)c(Cl)cc1OC)C(=O)OCC   94 % of control

Query string: Item Clc1ccc(-c2n[nH]c3c2Cc2ccccc2-3)cc1Cl has what recorded T/C?
Result string: 91 % of control

Query string: And what about the molecule Cn1cnc([N+](=O)[O-])c1SCC(N)C(=O)O (stereo unspecified) ?
Result string: 94 % of control

Query string: What do we get for NC(=O)c1cncc(C(=O)O)c1 ?
Result string: 101 % of control

====

tested on: P388 leukemia ip, CD2F1 mice, survival T/C; test: NCI In Vivo Anticancer Drug Screen. Data for tumor model P388 Leukemia (intraperitoneal) in CD2F1 (CDF1) mice; conditions: endpoint: median survival time; dose: 200.0 mg/kg/injection; schedule: Q01DX005 (ip); vehicle: Klucel (hydroxypropylcellulose) (HPC); higher = longer survival
Inconclusive results and toxic doses are left out. Peptide text beside a SMILES is read from it. * marks the point of attachment. Boc = CC(C)(C)OC(=O)*; OtBu = CC(C)(C)O*
Measured T/C by item

// below: answered compounds
Compound	T/C
CC1CCCCN1C(=O)C(c1ccccc1)(c1ccccc1)c1ccccc1 (centres undefined)	93 % of control
c1c2noc1CCCCCCCCC2	118 % of control
OC(C1=CCCCC1)(c1ccccc1)c1ccccc1	91 % of control
Cc1nc(Nc2ccccc2)c2c(C)c(Cc3ccccc3)[nH]c2n1	87 % of control

Okay, now this compound:
Query string: # T/C lookup, item CSCCC(NC(=O)OC(C)(C)C)C(=O)NC(Cc1ccccc1)C(=O)NCC(=O)OC(C)(C)C (stereo not drawn) (Boc-Met-Phe-Gly-OtBu; configuration not given here)
Result string: 107 % of control

====

Examples of compounds with documented T/C follow.
System: P388 leukemia ip, CD2F1 mice, survival T/C
Assay: NCI In Vivo Anticancer Drug Screen. Data for tumor model P388 Leukemia (intraperitoneal) in CD2F1 (CDF1) mice
Settings: endpoint: median survival time; dose: 100.0 mg/kg/injection; schedule: Q01DX001 (ip); vehicle: saline with Tween-80; higher = longer survival
Experimental: The antitumor activity of compounds was measured in mice bearing transplantable tumors. Survival or tumor size were measured and the results are expressed as the measurement made in the treated group (T) divided by the measurement made in the vehicle treated control group (C). The tumor model used in this assay is P388 Leukemia (intraperitoneal) in CD2F1 (CDF1) mice
Toxic doses and inconclusive results are not listed.

Worked cases, T/C given:
> print(dat)
                                   compound  property.measured    observed.value
1  CC1=CO/C(=C\[Si](C)(C)C)OC1c1ccccc1 (stereo unspecified)                T/C  104 % of control
2  O=C1CSC(c2ccc(Cl)cc2)N1c1ccc(N2C(=O)CSC2c2ccc(Cl)cc2)cc1 (stereo unspecified)                T/C   94 % of control
3  CN1c2ccccc2C2=C(C3=C(CS2)C(=O)CCS3)S1(=O)=O                T/C  100 % of control

Query string: What T/C value was documented for this compound, CCOC(=O)/N=[N+](\[O-])c1cccc(Cl)c1 ?
Result string: 110 % of control

Query string: Would you kindly repeat that for CCOc1ccc(N=Nc2c(O)n(-c3ccc(Br)cc3)c(=S)n(-c3ccccc3)c2=O)cc1 ?
Result string: 107 % of control

Query string: Please give the result for CCOP(O)(=S)OCC.[Fe] too.
Result string: 90 % of control

Query string: Another compound to look at: CCC(c1ccc(OC)cc1)C(NCC(=O)N/N=C/c1ccc(N(C)C)cc1)c1ccc(OC)cc1 (stereo unspecified)
Result string: 100 % of control

Query string: And CC/C(=N\Nc1cc(C)[nH]c(=O)c1)c1ccccc1 ?
Result string: 98 % of control

====

system: P388 leukemia ip, CD2F1 mice, survival T/C; test: NCI In Vivo Anticancer Drug Screen. Data for tumor model P388 Leukemia (intraperitoneal) in CD2F1 (CDF1) mice; details: endpoint: median survival time; dose: 60.0 mg/kg/injection; schedule: Q01DX005 (ip); vehicle: Klucel (hydroxypropylcellulose) (HPC); higher = longer survival
Toxic doses and inconclusive results are not listed.
# T/C annotations

Query string: Which T/C value belongs to CCOc1c(N=Nc2ccc(Br)cc2)c(C)nn1C(=S)S ?
Result string: 105 % of control

Query string: Do the same for Cc1nc2cncnc2n(CCN2CCOCC2)c1=O please
Result string: 98 % of control

Query string: Would you mind doing Nc1ccccc1S(=O)(=O)Nc1c(N)[nH]c(=S)[nH]c1=O as well?
Result string: 105 % of control

Query string: Now this one: CSc1n[nH]c(C(F)(F)F)n1
Result string: 103 % of control

Query string: Continue with O=S(=O)(CS(=O)(=O)c1ccc(Br)cc1)c1ccc(Br)cc1
Result string: 102 % of control

Query string: Moving on to c1cc(-c2ncc3ccncc3n2)ccn1
Result string: 109 % of control

Query string: Please answer likewise for NC(CC1C=CCCC1)C(=O)O (stereo unspecified)
Result string: 98 % of control

Query string: Another molecule to look at: CCOC(=O)C(CC)/C(C)=N\NC(N)=S (stereo unspecified)
Result string: 100 % of control

Query string: What do you have for CC1=C(C)C(=O)C2=C(OCCO2)C1=O ?
Result string: 104 % of control

Query string: One more molecule: c1ccc2c(c1)[nH]c1c3ccccc3sc21
Result string: 106 % of control

Query string: Can you check CCN(CC)CCSc1cc(C)c2ccc(N)nc2n1 next?
Result string: 100 % of control

====

Reported T/C values for a set of molecules
tested on: P388 leukemia ip, CD2F1 mice, survival T/C; assay: NCI In Vivo Anticancer Drug Screen. Data for tumor model P388 Leukemia (intraperitoneal) in CD2F1 (CDF1) mice; conditions: endpoint: median survival time; dose: 7.5 mg/kg/injection; schedule: Q01DX005 (ip); vehicle: Klucel (hydroxypropylcellulose) (HPC); higher = longer survival
Toxic doses and inconclusive results are not listed.

Recorded results for 3 molecules are shown here.
> print(dat)
                                   molecule    observed.value
1        Cc1ccc(C)n1-c1ccsc1C(=O)NNC(=O)CCl  101 % of control
2  BrC1=CC(Br)=C2N=C(N3CCCC3)N=C3N=C(C(Br)(Br)Br)N=C1N32   94 % of control
3  CCN(CC)CCOC(=O)c1ccc(N=NC2Sc3nc4ccccc4n3C2=O)cc1 (centres undefined)   92 % of control

Query string: Could you share which T/C value was measured for CNc1cc(C)c2ccc(N(C)C)cc2n1 ?
Result string: 98 % of control

====

Below, each entry is listed alongside its reported T/C.
Test system: P388 leukemia ip, CD2F1 mice, survival T/C
Assay: NCI In Vivo Anticancer Drug Screen. Data for tumor model P388 Leukemia (intraperitoneal) in CD2F1 (CDF1) mice
Details: endpoint: median survival time; dose: 50.0 mg/kg/injection; schedule: Q01DX005 (ip); vehicle: saline with Tween-80; higher = longer survival
Procedure: The antitumor activity of compounds was measured in mice bearing transplantable tumors. Survival or tumor size were measured and the results are expressed as the measurement made in the treated group (T) divided by the measurement made in the vehicle treated control group (C). The tumor model used in this assay is P388 Leukemia (intraperitoneal) in CD2F1 (CDF1) mice
Toxic doses and inconclusive results are not listed.

> print(dat)
                                   molecule                           measured.target    observed.value
1  CC1c2ccccc2CC(CCN(C)C)c2ccccc21 (stereo unspecified)  P388 leukemia ip, CD2F1 mice, survival T/C  110 % of control
2  CCOC(=O)C(NC(=O)OC(C)(C)C)C(C)C (stereo unspecified)  P388 leukemia ip, CD2F1 mice, survival T/C   98 % of control
3  CCOC(=O)C(=O)C(C#N)c1ccccc1CC#N (stereo unspecified)  P388 leukemia ip, CD2F1 mice, survival T/C  109 % of control
4  Nc1c(S(=O)(=O)O)cc(Br)c2c1C(=O)c1ccccc1C2=O  P388 leukemia ip, CD2F1 mice, survival T/C   98 % of control
5                     CO/N=C/c1ccc[n+](C)c1  P388 leukemia ip, CD2F1 mice, survival T/C  105 % of control
6         Cc1cc2c3c(cccc3c1)C(=O)c1ccccc1-2  P388 leukemia ip, CD2F1 mice, survival T/C  102 % of control

Query string: Data request, read-out T/C, for COC(=O)C1=C(C(=O)OC)C2CC3C4CC=C5CC(OC(C)=O)CCC5(C)C4CCC3(C)C2=C(OC(C)=O)C1 (stereo unspecified)
Result string: 90 % of control

Query string: Now try O=c1[nH]c2c(Cl)c(Cl)c(Cl)c(Cl)c2[nH]c1=O .
Result string: 90 % of control
